These data points were gathered from patent EP1619195A2.

Test system: HT-29 (colon cancer)
assay procedure: cells
applied conditions: HT-29; 50% cell destroying lethal concentration
The entries below are paired with their reported LC50.
readout label: LC50 (µg/mL)

1. CC(C)=CCc1c2c(c(O)c3c1OC14C(=CC5CC1C(C)(C)OC4(CC=C(C)C)C5=O)C3=O)C=CC(C)(C)O2 (centres unmarked) [TSB-8, desoxymorellin]; 69
2. CC(C)=CCCC1(C)C=Cc2c(O)c3c(c(CC=C(C)C)c2O1)OC12C(=CC4CC1C(C)(C)OC2(CC=C(C)C(=O)O)C4=O)C3=O (centres unmarked) [TSB-3, isogambogic acid]; 8.8
3. CC(C)=CCc1c2c(c(O)c3c1OC14C(=CC5CC1C(C)(C)OC4(CC=C(C)CO)C5=O)C3=O)C=CC(C)(C)O2 (centres unmarked) [TSB-6, isomorellinol]; 8.5
4. CC(C)=CCc1c2c(c(O)c3c1OC14C(=CC5CC1C(C)(C)OC4(CC=C(C)C(=O)O)C5=O)C3=O)C=CC(C)(C)O2 (centres unmarked) [TSB-7, morellic acid]; 7.2
5. CC(C)=CCc1c2c(c(O)c3c1OC14C(=CC5CC1C(C)(C)OC4(CC=C(C)C(=O)O)C5=O)C3=O)C=CC(C)(C)O2 (centres unmarked) [TSB-2, isomorellic acid]; 12

* * *

Test system: HL-60 (leukemia)
assay procedure: cells
applied conditions: Homo sapiens, HL-60, HL-60; positive control
Source text: The cancer cell growth inhibition test was primarily used to detect the effect of a candidate drug on cancer cell proliferation. The working principle involved therein is the abilityof viable cells to shift alamarBlue (Biosource, USA) from its originally non-fluorescent oxidized state to a reduced form (fluorescent, red) having fluorescence via metabolic reaction. […]
readout label: IC50 (µM)

1. CO[C@@]12[C@H](COC(N)=O)C3=C(C(=O)C(C)=C(N)C3=O)N1C[C@@H]1N[C@@H]12 [mitomycin, reference compound]; 0.039

* * *

# reported LC50; entries follow
System: HL-60 (leukemia)
assay procedure: cells
applied conditions: HL-60; 50% cell destroying lethal concentration
readout label: LC50 (µg/mL)

1) CC(C)=CCc1c2c(c(O)c3c1OC14C(=CC5CC1C(C)(C)OC4(CC=C(C)C(=O)O)C5=O)C3=O)C=CC(C)(C)O2 (centres unmarked) [TSB-2, isomorellic acid]; 43
2) CC(C)=CCCC1(C)C=Cc2c(O)c3c(c(CC=C(C)C)c2O1)OC12C(=CC4CC1C(C)(C)OC2(CC=C(C)C(=O)O)C4=O)C3=O (centres unmarked) [TSB-3, isogambogic acid]; 4.6
3) CC(C)=CCc1c2c(c(O)c3c1OC14C(=CC5CC1C(C)(C)OC4(CC=C(C)C(=O)O)C5=O)C3=O)C=CC(C)(C)O2 (centres unmarked) [TSB-7, morellic acid]; 5.6
4) CC(C)=CCc1c2c(c(O)c3c1OC14C(=CC5CC1C(C)(C)OC4(CC=C(C)CO)C5=O)C3=O)C=CC(C)(C)O2 (centres unmarked) [TSB-6, isomorellinol]; 6.2

* * *

System: HUVEC
assay procedure: in vitro
applied conditions: HUVEC (normal human cell); 50% cell destroying lethal concentration
readout label: LC50 (µg/mL)

1. CC(C)=CCc1c2c(c(O)c3c1OC14C(=CC5CC1C(C)(C)OC4(CC=C(C)C)C5=O)C3=O)C=CC(C)(C)O2 (centres unmarked); 40
2. CC(C)=CCCC1(C)C=Cc2c(O)c3c(c(CC=C(C)C)c2O1)OC12C(=CC4CC1C(C)(C)OC2(CC=C(C)C(=O)O)C4=O)C3=O (centres unmarked); 5.2
3. CC(C)=CCc1c2c(c(O)c3c1OC14C(=CC5CC1C(C)(C)OC4(CC=C(C)C(=O)O)C5=O)C3=O)C=CC(C)(C)O2 (centres unmarked) [TSB-7, morellic acid]; 4.8
4. CC(C)=CCc1c2c(c(O)c3c1OC14C(=CC5CC1C(C)(C)OC4(CC=C(C)CO)C5=O)C3=O)C=CC(C)(C)O2 (centres unmarked); 9.3
5. CC(C)=CCc1c2c(c(O)c3c1OC14C(=CC5CC1C(C)(C)OC4(CC=C(C)C(=O)O)C5=O)C3=O)C=CC(C)(C)O2 (centres unmarked) [TSB-2, isomorellic acid]; 22
